# target_or_system: T1, FGFR2-IIIb (fibroblast growth factor receptor 2 IIIb splice form) (human, UniProt P21802 22-377)
# T1 construct: also called FGFR2b; KGFR
# T1 chain: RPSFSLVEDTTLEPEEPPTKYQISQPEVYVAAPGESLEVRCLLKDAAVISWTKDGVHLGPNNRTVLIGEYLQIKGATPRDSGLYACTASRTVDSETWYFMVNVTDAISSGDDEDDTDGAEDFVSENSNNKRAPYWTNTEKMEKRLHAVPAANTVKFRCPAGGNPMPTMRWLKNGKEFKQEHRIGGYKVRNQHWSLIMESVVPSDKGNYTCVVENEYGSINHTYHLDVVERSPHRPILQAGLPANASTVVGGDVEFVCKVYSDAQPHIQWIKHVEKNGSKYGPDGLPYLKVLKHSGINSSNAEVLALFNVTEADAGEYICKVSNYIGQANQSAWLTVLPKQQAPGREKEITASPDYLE
# method: ELISA potency of forced oxidation samples

binder	Potency By ELISA
anti-FGFR2-IIIb antibody incubated with 1.0% hydrogen peroxide overnight at room temperature (force oxidized) (antibody, human IgG1, kappa, V domains shown, Same antibody as m1 after peroxide treatment; also called +1.0% H2O2; 1.0% H2O2) VH: QVQLVQSGAEVKKPGSSVKVSCKASGYIFTTYNVHWVRQAPGQGLEWIGSIYPDNGDTSYNQNFKGRATITADKSTSTAYMELSSLRSEDTAVYYCARGDFAYWGQGTLVTVSS VL: DIQMTQSPSSLSASVGDRVTITCKASQGVSNDVAWYQQKPGKAPKLLIYSASYRYTGVPSRFSGSGSGTDFTFTISSLQPEDIATYYCQQHSTTPYTFGQGTKLEIKR	83
anti-FGFR2-IIIb antibody incubated with 0.01% hydrogen peroxide overnight at room temperature (force oxidized) (antibody, human IgG1, kappa, V domains shown, Same antibody as m1 after peroxide treatment; also called +0.01% H2O2; 0.01% H2O2) VH: QVQLVQSGAEVKKPGSSVKVSCKASGYIFTTYNVHWVRQAPGQGLEWIGSIYPDNGDTSYNQNFKGRATITADKSTSTAYMELSSLRSEDTAVYYCARGDFAYWGQGTLVTVSS VL: DIQMTQSPSSLSASVGDRVTITCKASQGVSNDVAWYQQKPGKAPKLLIYSASYRYTGVPSRFSGSGSGTDFTFTISSLQPEDIATYYCQQHSTTPYTFGQGTKLEIKR	102
anti-FGFR2-IIIb antibody incubated with 0.1% hydrogen peroxide overnight at room temperature (force oxidized) (antibody, human IgG1, kappa, V domains shown, Same antibody as m1 after peroxide treatment; also called +0.1% H2O2; 0.1% H2O2) VH: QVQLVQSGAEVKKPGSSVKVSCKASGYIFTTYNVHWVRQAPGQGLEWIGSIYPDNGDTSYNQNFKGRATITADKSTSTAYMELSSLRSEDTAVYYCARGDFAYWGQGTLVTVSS VL: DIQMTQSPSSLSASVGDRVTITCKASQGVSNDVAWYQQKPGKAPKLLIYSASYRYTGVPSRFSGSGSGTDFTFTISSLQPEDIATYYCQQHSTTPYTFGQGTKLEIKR	89
anti-FGFR2-IIIb antibody (afucosylated, humanized IgG1 monoclonal antibody), control sample incubated without hydrogen peroxide (antibody, V domains shown, also called αFGFR2b; Sample 1) VH: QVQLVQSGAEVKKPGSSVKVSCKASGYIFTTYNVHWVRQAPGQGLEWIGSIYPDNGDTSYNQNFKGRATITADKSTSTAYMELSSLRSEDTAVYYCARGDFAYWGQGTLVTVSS VL: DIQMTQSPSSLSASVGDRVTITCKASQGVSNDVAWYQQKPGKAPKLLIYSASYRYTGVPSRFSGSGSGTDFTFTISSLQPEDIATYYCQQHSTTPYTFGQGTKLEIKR	84
